Values compiled from patent EP1203770A1.

molecular target: HIV-1 protease (Human immunodeficiency virus type 1 group M subtype B); construct: The protease (or proteinase), consisting of only 99 amino acids, is among the smallest enzymes known; assay: In vitro HIV protease inhibitory assay (HIV Protease FITC Assay); type: biochemical; details: HIV-1 Dose 10.000 uM
Kindly state HIV-1 Protease % Inhib for each of the entries shown.

Recorded HIV-1 Protease % Inhib for O=c1oc(C(CC2CC2)CC2CC2)cc(O)c1C(c1ccccc1)C1CC1 (stereo not drawn) on HIV-1 protease (Human immunodeficiency virus type 1 group M subtype B) was 76.98%

Simply: COCOCc1ccc(C(C2=C(O)CC(CCc3ccccc3)(CC(C)C)OC2=O)C2CC2)s1 (stereo not drawn) , HIV-1 protease (Human immunodeficiency virus type 1 group M subtype B), HIV-1 Protease % Inhib = 103.56%

Query CCC(CCOC1CCCCO1)c1cc(O)c(C(c2ccccc2)C2CC2)c(=O)o1 (stereo not drawn) on HIV-1 protease (Human immunodeficiency virus type 1 group M subtype B); HIV-1 Protease % Inhib returned: 106.66%
